assay: Microsomal incubations of 3MI: production of 3MI metabolites by pig liver microsomes (HPLC); format: in vitro ADME; conditions: metabolite formed from 0.4 mM 3MI, pig liver microsomes, mean ±SD, n = 30
value.kind: Rate of Production (pmol/mg prot./min) ±SD

[
  {
    "compound": "OCc1c[nH]c2ccccc12",
    "units": "pmol/mg prot./min",
    "readout.value": 37.1
  },
  {
    "compound": "CC1(O)C(=O)Nc2ccccc21 (stereo not drawn) [3-hydroxy-3-methyloxindole]",
    "units": "pmol/mg prot./min",
    "readout.value": 272.4
  },
  {
    "compound": "NCC(=O)c1ccccc1",
    "units": "pmol/mg prot./min",
    "readout.value": 7.8
  }
]

(A) Cc1c[nH]c2cc(O)ccc12
(B) Cc1c[nH]c2ccc(O)cc12
(C) CC1C(=O)Nc2ccccc21 (stereo not drawn)
Put the items in order so that reported Rate of Production (pmol/mg prot./min) ±SD rises from first to last. # format: label list in the order the request specifies B, A, C
